- System: Saccharomyces cerevisiae lifespan shortening, growth inhibition
- protocol.text: yeast lifespan shortening compounds, dose response (AID 849);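 also: yeast growth read as optical density after two days at 30 degrees C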
Active and inactive are the calls of the source. No rule for the calls is given here.
Mark one answer only. Choices: yes (1) for active, no (0) for inactive

Example entries begin here.
1) O=C(O)Cc1cc(I)c(Oc2ccc(O)c(I)c2)c(I)c1	yes (1)
2) CCOC(=O)c1c(N)sc(C(O)(C(F)(F)F)C(F)(F)F)c1-c1ccc(Cl)cc1	no (0)
3) Clc1ccc(N/N=C/c2cccnc2)cc1	no (0)
4) CCc1ccc2c(c1)C1(NN=C(c3cccc4ccccc34)S1)C(=O)N2 (configuration not stated)	yes (1)
5) C=C(C)COc1ccc(-c2[nH]ncc2-c2ccccc2OC)c(O)c1	no (0)

Req: Fill in: this test's call for O=C(Oc1csc(=S)n1C(=O)c1ccccc1)c1ccccc1 is ___
Resp: no (0)

Req: Fill in: this test's call for N#CC(c1cccc(Cl)c1)c1ccc2c(C(F)(F)F)cc(C(F)(F)F)nc2n1 (configuration not stated) is ___
Resp: no (0)
